- Target Or Test System: DP4 variant R125A (Homo sapiens, UniProt P27487, R125A)
- Construct: His(6)-37-766 hDP4 containing fractions were concentrated to 1 ml
- Sequence (P27487 37-766 R125A): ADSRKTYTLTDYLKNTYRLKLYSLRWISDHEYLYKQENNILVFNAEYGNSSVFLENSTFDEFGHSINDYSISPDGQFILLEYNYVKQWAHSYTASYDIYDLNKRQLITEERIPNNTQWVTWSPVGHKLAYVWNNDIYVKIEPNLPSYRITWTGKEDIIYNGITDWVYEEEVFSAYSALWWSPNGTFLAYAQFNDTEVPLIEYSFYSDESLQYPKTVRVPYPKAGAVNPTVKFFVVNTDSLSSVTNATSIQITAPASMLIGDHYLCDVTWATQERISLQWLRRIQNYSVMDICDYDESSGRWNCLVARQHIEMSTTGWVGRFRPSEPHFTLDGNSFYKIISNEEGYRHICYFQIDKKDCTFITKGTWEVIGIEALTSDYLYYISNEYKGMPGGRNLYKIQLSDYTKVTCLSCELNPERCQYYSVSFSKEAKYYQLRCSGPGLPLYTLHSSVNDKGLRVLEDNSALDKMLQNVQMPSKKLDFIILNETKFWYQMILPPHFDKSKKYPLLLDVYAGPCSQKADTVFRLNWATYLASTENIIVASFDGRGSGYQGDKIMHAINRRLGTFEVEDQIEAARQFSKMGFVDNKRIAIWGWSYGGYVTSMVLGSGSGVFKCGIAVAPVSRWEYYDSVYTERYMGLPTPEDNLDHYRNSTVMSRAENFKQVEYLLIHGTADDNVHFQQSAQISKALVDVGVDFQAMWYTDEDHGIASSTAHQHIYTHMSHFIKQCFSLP
- Method: IC50 determination with substrate Gly-Pro-AMC
- Assay Setup: 100 mM HEPES-buffer (pH 7.6), T = 30 °C, substrate Gly-Pro-AMC in the range of Km
Non-standard residues stand in square brackets, D forms with d. Residues, ends and D or L forms follow the SMILES beside them. Tle = CC(C)(C)[C@H](N)C(=O)O
Measured Endpoint: pIC50
The meaning of pIC50 here: minus log10 of the concentration in molar units.

INSERT INTO measurements (molecule, target_or_test_system, measured_endpoint, reported_measurement) VALUES
  ('CC[C@H](C)[C@H](NC(=O)[C@@H]1CCCN1C(=O)[C@@H](N)C(C)(C)C)C(N)=O [t-Bu-Gly-Pro-Ile-NH2, t-Butyl-Gly-Pro-Ile-NH2] (H-[Tle]-Pro-Ile-NH2)', 'DP4 variant R125A (Homo sapiens, UniProt P27487, R125A)', 'pIC50', 4.10);

Please find the next molecule below.
Field request: pIC50 | item: CC[C@H](C)[C@H](NC(=O)[C@@H]1CCCN1C(=O)[C@@H](N)C(C)(C)C)C(=O)O [t-Bu-Gly-Pro-Ile, t-Butyl-Gly-Pro-Ile] (H-[Tle]-Pro-Ile-OH)
3.40

* * *

Catalogue of compounds with associated IC50
- Target Or Test System: DP4 variant N710Q (Homo sapiens, UniProt P27487, N710Q)
- Construct: His(6)-37-766 hDP4 containing fractions were concentrated to 1 ml; made in house; host or cells: Pichia pastoris X-33 (vector pPICZα C, secreted)
- Sequence (P27487 37-766 N710Q): as the sequence (P27487 37-766 R125A) above, with A89R, N674Q counted along it
- Method: IC50 determination with substrate Gly-Pro-AMC
- Type: biochemical
- Assay Setup: bounds given in mM, 100 mM HEPES-buffer (pH 7.6), T = 30 °C, substrate Gly-Pro-AMC in the range of Km
Non-standard residues stand in square brackets, D forms with d. Residues, ends and D or L forms follow the SMILES beside them. Tle = CC(C)(C)[C@H](N)C(=O)O

INSERT INTO assay_data (compound, measured_endpoint, reported_measurement) VALUES
  ('CC[C@H](C)[C@H](NC(=O)[C@@H]1CCCN1C(=O)[C@@H](N)C(C)(C)C)C(=O)O [t-Bu-Gly-Pro-Ile, t-Butyl-Gly-Pro-Ile] (H-[Tle]-Pro-Ile-OH)', 'IC50', '> 10 mM');

Field request: IC50 | item: CC[C@H](C)[C@H](NC(=O)[C@@H]1CCCN1C(=O)[C@@H](N)C(C)(C)C)C(N)=O [t-Bu-Gly-Pro-Ile-NH2, t-Butyl-Gly-Pro-Ile-NH2] (H-[Tle]-Pro-Ile-NH2)
> 10 mM
